// data source = patent US12624044B2

Target: SMARCA4 (Homo sapiens)
Construct: SMARCA2 and SMARCA4 protein degradation in MV4-11 cells; endogenous in cells; host or cells: MV4-11
Sequence (P51532 whole entry): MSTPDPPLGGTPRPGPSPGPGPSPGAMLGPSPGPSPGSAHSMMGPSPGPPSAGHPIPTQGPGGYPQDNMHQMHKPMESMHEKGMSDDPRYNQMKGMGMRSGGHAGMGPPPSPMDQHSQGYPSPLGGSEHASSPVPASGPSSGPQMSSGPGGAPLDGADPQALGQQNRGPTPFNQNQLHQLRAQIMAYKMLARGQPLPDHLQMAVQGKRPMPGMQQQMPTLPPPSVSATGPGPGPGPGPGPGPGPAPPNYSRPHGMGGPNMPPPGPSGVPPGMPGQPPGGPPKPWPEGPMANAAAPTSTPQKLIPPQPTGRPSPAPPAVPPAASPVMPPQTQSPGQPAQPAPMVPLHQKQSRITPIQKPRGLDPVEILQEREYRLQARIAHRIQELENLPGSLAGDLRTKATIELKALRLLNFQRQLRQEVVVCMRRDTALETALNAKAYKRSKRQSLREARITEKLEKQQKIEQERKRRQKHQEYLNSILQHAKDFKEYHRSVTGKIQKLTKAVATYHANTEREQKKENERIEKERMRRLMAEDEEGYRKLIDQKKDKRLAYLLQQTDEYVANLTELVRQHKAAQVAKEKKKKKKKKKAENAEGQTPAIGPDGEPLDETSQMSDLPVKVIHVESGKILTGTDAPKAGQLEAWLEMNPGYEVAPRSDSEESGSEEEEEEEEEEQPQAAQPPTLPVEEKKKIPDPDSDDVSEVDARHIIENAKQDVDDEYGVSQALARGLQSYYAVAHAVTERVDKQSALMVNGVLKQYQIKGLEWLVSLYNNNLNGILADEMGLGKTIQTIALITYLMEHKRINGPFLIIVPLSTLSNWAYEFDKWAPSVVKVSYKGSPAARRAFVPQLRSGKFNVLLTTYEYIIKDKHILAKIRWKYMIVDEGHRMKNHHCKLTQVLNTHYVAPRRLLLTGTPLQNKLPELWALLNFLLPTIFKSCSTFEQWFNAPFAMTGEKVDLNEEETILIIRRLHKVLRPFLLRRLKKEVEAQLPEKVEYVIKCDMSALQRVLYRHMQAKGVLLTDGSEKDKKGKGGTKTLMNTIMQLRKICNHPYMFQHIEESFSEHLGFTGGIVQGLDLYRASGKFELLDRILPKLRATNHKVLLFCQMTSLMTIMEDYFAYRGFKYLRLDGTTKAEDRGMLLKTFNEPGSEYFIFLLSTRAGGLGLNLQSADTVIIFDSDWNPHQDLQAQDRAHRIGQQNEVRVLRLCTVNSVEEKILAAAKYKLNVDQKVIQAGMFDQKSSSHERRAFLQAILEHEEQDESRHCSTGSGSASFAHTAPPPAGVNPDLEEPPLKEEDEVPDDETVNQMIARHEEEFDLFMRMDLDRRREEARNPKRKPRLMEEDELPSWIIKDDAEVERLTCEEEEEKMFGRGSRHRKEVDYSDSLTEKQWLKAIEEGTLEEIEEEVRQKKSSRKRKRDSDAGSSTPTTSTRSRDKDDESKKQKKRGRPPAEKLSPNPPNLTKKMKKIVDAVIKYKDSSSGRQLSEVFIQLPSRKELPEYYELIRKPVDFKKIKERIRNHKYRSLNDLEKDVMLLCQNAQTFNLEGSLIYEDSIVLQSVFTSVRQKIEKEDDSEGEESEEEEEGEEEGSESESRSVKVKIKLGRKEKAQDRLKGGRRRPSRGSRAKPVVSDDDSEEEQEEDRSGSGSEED
Experiment: SMARCA4 Western blot MV4-11 degradation
Format: cell-based
Settings: MV4-11, MV4-11 cells, 24 h, read-out: SMARCA4 WB MV411 degradation 24 h: Average Dmax %
For each entry below, report its Dmax value.

Asked: Please look at this molecule and report its Dmax: `Cc1ncsc1-c1ccc(C2(NC(=O)[C@@H]3C[C@@H](O)CN3C(=O)[C@@H](NC(=O)[C@H]3CC[C@H](c4cnc(N5C6CCC5CN(c5cc(-c7ccccc7O)nnc5N)C6)nc4)CC3)C(C)(C)C)CC2)cc1`
Given back: > 90%

Asked: Return value of Dmax for input `Cc1ncsc1-c1ccc(CNC(=O)[C@@H]2C[C@@H](O)CN2C(=O)[C@@H](NC(=O)CCCN2CCC(c3cnc(N4C5CCC4CN(c4cc(-c6ccccc6O)nnc4N)C5)nc3)CC2)C(C)(C)C)cc1` , no commentary.
Given back: < 50%

Asked: Quickly give me recorded Dmax for `Cc1ncsc1-c1ccc(CNC(=O)[C@@H]2C[C@@H](O)CN2C(=O)[C@@H](NC(=O)CCCCN2CCC(c3cnc(N4C5CCC4CN(c4cc(-c6ccccc6O)nnc4N)C5)nc3)CC2)C(C)(C)C)cc1`
Given back: > 90%

Asked: Given the molecule `Cc1ncsc1-c1ccc(CNC(=O)[C@@H]2C[C@@H](O)CN2C(=O)[C@@H](NC(=O)CCCCN2CCN(Cc3ccc(-c4cc(-c5ccccc5O)nnc4N)cc3)CC2)C(C)(C)C)cc1` , write its reported Dmax.
Given back: 50 to 70%

Asked: Give reported Dmax value for Cn1c(=O)n(C2CCC(=O)NC2=O)c2ccc(C3CCC(N4CCC(c5cnc(N6C7CCC6CN(c6cc(-c8ccccc8O)nnc6N)C7)nc5)CC4)CC3)cc21 (centres unmarked)
Given back: > 90%

---

Molecular target: UniProtKB P51531
Sequence (P51531 whole entry): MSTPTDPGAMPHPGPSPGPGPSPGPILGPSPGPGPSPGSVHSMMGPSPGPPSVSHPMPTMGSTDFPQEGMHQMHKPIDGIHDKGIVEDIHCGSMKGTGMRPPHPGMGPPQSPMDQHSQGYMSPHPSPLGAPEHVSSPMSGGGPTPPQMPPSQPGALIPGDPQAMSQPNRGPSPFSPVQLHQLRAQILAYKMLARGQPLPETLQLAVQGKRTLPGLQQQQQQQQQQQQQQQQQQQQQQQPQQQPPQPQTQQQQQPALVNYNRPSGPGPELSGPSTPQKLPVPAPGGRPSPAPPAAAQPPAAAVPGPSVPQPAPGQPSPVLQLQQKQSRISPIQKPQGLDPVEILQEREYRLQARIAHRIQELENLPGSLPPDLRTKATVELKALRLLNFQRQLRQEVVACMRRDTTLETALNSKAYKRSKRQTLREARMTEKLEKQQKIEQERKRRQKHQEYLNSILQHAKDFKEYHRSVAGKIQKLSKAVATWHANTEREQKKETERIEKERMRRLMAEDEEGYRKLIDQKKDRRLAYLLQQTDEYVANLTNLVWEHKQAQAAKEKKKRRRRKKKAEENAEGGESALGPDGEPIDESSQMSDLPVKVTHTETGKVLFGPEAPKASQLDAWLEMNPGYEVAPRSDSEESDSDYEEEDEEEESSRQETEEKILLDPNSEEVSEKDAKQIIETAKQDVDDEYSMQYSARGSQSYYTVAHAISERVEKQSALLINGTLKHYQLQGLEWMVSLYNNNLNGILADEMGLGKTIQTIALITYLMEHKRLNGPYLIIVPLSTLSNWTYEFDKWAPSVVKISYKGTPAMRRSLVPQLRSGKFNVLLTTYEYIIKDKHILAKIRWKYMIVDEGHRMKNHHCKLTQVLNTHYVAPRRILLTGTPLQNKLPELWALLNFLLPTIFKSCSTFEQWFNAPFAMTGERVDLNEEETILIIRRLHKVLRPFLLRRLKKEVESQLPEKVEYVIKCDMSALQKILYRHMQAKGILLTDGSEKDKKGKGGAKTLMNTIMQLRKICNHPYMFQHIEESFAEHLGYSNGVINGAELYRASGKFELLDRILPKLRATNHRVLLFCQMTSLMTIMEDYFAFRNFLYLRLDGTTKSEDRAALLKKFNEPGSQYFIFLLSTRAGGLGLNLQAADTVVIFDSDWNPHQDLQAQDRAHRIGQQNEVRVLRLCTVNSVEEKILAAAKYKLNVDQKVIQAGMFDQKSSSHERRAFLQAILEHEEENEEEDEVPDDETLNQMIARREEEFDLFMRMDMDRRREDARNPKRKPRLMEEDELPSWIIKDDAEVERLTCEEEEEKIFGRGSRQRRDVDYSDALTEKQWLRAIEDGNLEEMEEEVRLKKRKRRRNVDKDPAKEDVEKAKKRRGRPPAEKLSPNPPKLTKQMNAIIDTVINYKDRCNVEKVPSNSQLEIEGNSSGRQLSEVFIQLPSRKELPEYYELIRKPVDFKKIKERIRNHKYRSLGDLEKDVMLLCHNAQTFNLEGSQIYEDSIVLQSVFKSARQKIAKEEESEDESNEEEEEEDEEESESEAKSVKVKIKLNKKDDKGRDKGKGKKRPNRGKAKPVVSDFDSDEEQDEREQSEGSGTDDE
Assay: MSD SMARCA2 degradation in NCI-H1299 cell line (24 h)
Format: cell-based
Parameters: HC: NCI-H1299 cells treated with DMSO; host or cells: NCI-H1299
Conditions: NCI-H1299, NCI-H1299 cells
observable: Dmax

Asked: Please report Dmax for the following compound: Cn1c(=O)n(C2CCC(=O)NC2=O)c2ccc(CCCCCCCCCN3CCC(Cn4cc(-c5cc(-c6ccccc6O)nnc5N)cn4)CC3)cc21 (stereo not drawn)
Given back: > 90%

Asked: Identify measured Dmax associated with `Cc1ncsc1-c1ccc(CNC(=O)[C@@H]2C[C@@H](O)CN2C(=O)[C@@H](NC(=O)CCCCCN(C)Cc2ccc(N3CCN(c4cc(-c5ccccc5O)nnc4N)CC3)cc2)C(C)(C)C)cc1`
Given back: < 50%

Asked: Identify measured Dmax corresponding to Cn1c(=O)n(C2CCC(=O)NC2=O)c2cccc(CCCOCCN3CCN(Cc4ccc(-c5cc(-c6ccccc6O)nnc5N)cc4)CC3)c21 (stereo not drawn)
Given back: 50 to 70%

Asked: Give reported Dmax value for `Cc1ncsc1-c1ccc(CNC(=O)[C@@H]2C[C@@H](O)CN2C(=O)[C@@H](NC(=O)CN2CCC(c3cnc(N4C5CCC4CN(c4cc(-c6ccccc6O)nnc4N)C5)nc3)CC2)C(C)(C)C)cc1`
Given back: > 90%

Asked: // Input: Cc1ncsc1-c1ccc(CNC(=O)[C@@H]2C[C@@H](O)CN2C(=O)[C@@H](NC(=O)CCCCCN2CCCC(n3cc(-c4cc(-c5ccccc5O)nnc4N)cn3)C2)C(C)(C)C)cc1 (stereo partly drawn) . Output its Dmax only.
Given back: < 50%

Asked: Provide one value: measured Dmax of Cn1c(=O)n(C2CCC(=O)NC2=O)c2cccc(CCCCOc3ccc(CN4CCN(c5cc(-c6ccccc6O)nnc5N)CC4)cc3)c21 (stereo not drawn)
Given back: < 50%

Asked: Entry Cn1c(=O)n(C2CCC(=O)NC2=O)c2ccc(CCCOCCCN3CCN(Cc4ccc(-c5cc(-c6ccccc6O)nnc5N)cc4)CC3)cc21 (stereo not drawn) needs its Dmax filled in; supply it.
Given back: 50 to 70%

Asked: Return Dmax for the following compound: O=C1CCC(n2c(=O)n(CCCCCCc3cn(Cc4cccc(N5C[C@H]6C[C@@H]5CN6/C=C/C(=O)c5ccccc5O)n4)nn3)c3ccccc32)C(=O)N1 (stereo partly drawn)
Given back: < 50%

Asked: Consider the compound Cn1c(=O)n(C2CCC(=O)NC2=O)c2ccc(CN3CCC(OCCCN4CCN(Cc5ccc(-c6cc(-c7ccccc7O)nnc6N)cc5)CC4)CC3)cc21 (stereo not drawn) . State its measured Dmax.
Given back: 70 to 90%

Asked: Report Dmax, nothing else, for this compound: Cn1c(=O)n(C2CCC(=O)NC2=O)c2cccc(C#CCCCc3cn(Cc4cccc(N5C[C@H]6C[C@@H]5CN6/C=C/C(=O)c5ccccc5O)n4)nn3)c21 (stereo partly drawn)
Given back: < 50%

Asked: State, in one line, measured Dmax of Cn1c(=O)n(C2CCC(=O)NC2=O)c2cccc(C#CCN3CCO[C@H](CNCc4ccc(N5CCN(c6cc(-c7ccccc7O)nnc6N)CC5)cc4)C3)c21 (stereo partly drawn)
Given back: < 50%

Asked: For the compound Cn1c(=O)n(C2CCC(=O)NC2=O)c2cccc(CCCCCCc3cn(Cc4cccc(N5C[C@H]6C[C@@H]5CN6/C=C/C(=O)c5ccccc5O)n4)nn3)c21 (stereo partly drawn) , give its reported Dmax.
Given back: < 50%

Asked: For the compound Cn1c(=O)n(C2CCC(=O)NC2=O)c2ccc(CCCOCCN3CCN(Cc4ccc(-c5cc(-c6ccccc6O)nnc5N)cc4)CC3)cc21 (stereo not drawn) , give its reported Dmax.
Given back: < 50%

Asked: Name the recorded Dmax of the compound listed here: Cn1c(=O)n(C2CCC(=O)NC2=O)c2cccc(CCCCCCCCCN3CCC(Cn4cc(-c5cc(-c6ccccc6O)nnc5N)cn4)CC3)c21 (stereo not drawn)
Given back: > 90%

Asked: Return reported Dmax. Input compound: Cn1c(=O)n(C2CCC(=O)NC2=O)c2ccc(CCCCCCc3cn(Cc4cccc(N5C[C@H]6C[C@@H]5CN6/C=C/C(=O)c5ccccc5O)n4)nn3)cc21 (stereo partly drawn)
Given back: 50 to 70%

Asked: Give the measured Dmax for Cn1c(=O)n(C2CCC(=O)NC2=O)c2cccc(CCCCCCCCN3CCN(c4cc(-c5ccccc5O)nnc4N)CC3)c21 (stereo not drawn)
Given back: < 50%

Asked: Supply Dmax value. Item: CN(Cc1ccc(N2CCN(c3cc(-c4ccccc4O)nnc3N)CC2)cc1)C1CCN(Cc2cccc3c2n(C)c(=O)n3C2CCC(=O)NC2=O)CC1 (stereo not drawn)
Given back: 70 to 90%

Asked: Retrieve Dmax measured for Cn1c(=O)n(C2CCC(=O)NC2=O)c2cccc(CNCCCc3cn(Cc4cccc(N5C[C@H]6C[C@@H]5CN6/C=C/C(=O)c5ccccc5O)n4)nn3)c21 (stereo partly drawn) and print it.
Given back: < 50%

Asked: Specify reported Dmax for the compound shown: O=C1CCC(n2c(=O)n(CCCCc3cn(Cc4cccc(N5C[C@H]6C[C@@H]5CN6/C=C/C(=O)c5ccccc5O)n4)nn3)c3ccccc32)C(=O)N1 (stereo partly drawn)
Given back: < 50%

Asked: Hello, please tell me recorded Dmax for this one: CN(CCOCCCc1ccc2c(c1)n(C)c(=O)n2C1CCC(=O)NC1=O)Cc1ccc(N2CCN(c3cc(-c4ccccc4O)nnc3N)CC2)cc1 (stereo not drawn)
Given back: < 50%

Asked: Give me measured Dmax, please, for this compound: Cn1c(=O)n(C2CCC(=O)NC2=O)c2cccc(CCCCN3CCC[C@@H](Cn4cc(-c5cc(-c6ccccc6O)nnc5N)cn4)C3)c21 (stereo partly drawn)
Given back: > 90%

Asked: Indicate its recorded Dmax; the compound in question is `Cc1ncsc1-c1ccc(CNC(=O)[C@@H]2C[C@@H](O)CN2C(=O)[C@@H](NC(=O)CN2CCC(n3cc(-c4cc(-c5ccccc5O)nnc4N)cn3)CC2)C(C)(C)C)cc1`
Given back: 70 to 90%

Asked: Answer with the recorded Dmax for the compound listed here: Cn1c(=O)n(C2CCC(=O)NC2=O)c2ccc(CCCN3CCCC(n4cc(-c5cc(-c6ccccc6O)nnc5N)cn4)C3)cc21 (stereo not drawn)
Given back: 70 to 90%

Asked: State its Dmax for this compound: Cn1c(=O)n(C2CCC(=O)NC2=O)c2ccc(CCCN3CCC(n4cc(-c5cc(-c6ccccc6O)nnc5N)cn4)CC3)cc21 (stereo not drawn)
Given back: 50 to 70%
